Listing of entries alongside the reported pIC50.
target: human DHODH (Homo sapiens, UniProt Q02127)
Sequence (Q02127 whole entry): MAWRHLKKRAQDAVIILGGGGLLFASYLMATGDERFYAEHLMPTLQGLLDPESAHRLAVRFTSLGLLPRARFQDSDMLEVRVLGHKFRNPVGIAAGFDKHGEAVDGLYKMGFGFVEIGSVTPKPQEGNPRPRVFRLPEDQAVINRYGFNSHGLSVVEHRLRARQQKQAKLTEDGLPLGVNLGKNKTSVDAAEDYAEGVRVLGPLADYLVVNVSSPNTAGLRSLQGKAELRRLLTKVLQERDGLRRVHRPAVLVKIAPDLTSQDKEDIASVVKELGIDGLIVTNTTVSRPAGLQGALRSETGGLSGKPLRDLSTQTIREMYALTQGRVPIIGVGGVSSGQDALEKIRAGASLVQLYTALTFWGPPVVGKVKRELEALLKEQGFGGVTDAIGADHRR
Bear in mind: pIC50 is minus log10 of a mol/L concentration; give just that figure.

{"molecule": "C=C(C)C1CN(c2c(F)cccc2Cl)C(=O)c2cc(F)c(-n3nc(CO)n(CC)c3=O)cc21 (single isomer, unassigned)", "assay.metric": "pIC50", "test.result": 9.52}
{"molecule": "CCn1c(CO)nn(-c2cc3c(cc2F)C(=O)N(c2c(F)cccc2Cl)CN3CC(C)C)c1=O", "assay.metric": "pIC50", "test.result": 8.70}
{"molecule": "CCCCN1CN(c2c(F)cccc2Cl)C(=O)c2cc(F)c(-n3nc(CO)n(CC)c3=O)cc21", "assay.metric": "pIC50", "test.result": 8.30}

Okay, next one:
// query Tell me reported pIC50 for CCn1c(CO)nn(-c2cc3c(cc2F)C(=O)N(c2c(F)cccc2Cl)C(C)(C)N3C(C)C)c1=O , tested with human DHODH (Homo sapiens, UniProt Q02127).
// result 5.98
